B1: DLC1 (parent)
chain: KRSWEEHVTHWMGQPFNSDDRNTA

Variants of: B1
Assay: protein stability index of a GFP-peptide fusion (GPS, HEK-293T) (PSI 1-6); higher = more stable;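 also: lentivirally expressed fusions sorted by FACS into six bins by GFP to DsRed ratio, PSI derived from sequencing read proportions per bin multiplied by bin number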
Conditions: c terminus: a fixed tail appended
Attribute: protein stability index

{"mutantLabel": "T23C", "protein stability index": 3.51}
{"mutantLabel": "E6Y", "protein stability index": 2.31}
{"mutantLabel": "M12V", "protein stability index": 2.73}
{"mutantLabel": "G13Q", "protein stability index": 2.44}
{"mutantLabel": "D20W", "protein stability index": 1.59}
{"mutantLabel": "T9G", "protein stability index": 3.14}
{"mutantLabel": "W11T", "protein stability index": 2.49}
{"mutantLabel": "H7W", "protein stability index": 2.82}
{"mutantLabel": "N22I", "protein stability index": 2.12}
{"mutantLabel": "R21V", "protein stability index": 3.31}
